FYI, the data here is from paper PMC10397247.

Target: T1, P6-AA-12HAA-L
T1 chain: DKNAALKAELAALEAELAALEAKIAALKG
Assay: two-hybrid library CCmax;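 also: natural log of median RNA to DNA barcode read ratio; higher means stronger binding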
Details: mean of both orientations
readout.name: interaction score

a. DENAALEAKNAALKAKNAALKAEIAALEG [P5-AA-1HAA-N]
b. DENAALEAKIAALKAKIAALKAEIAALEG [4H1385-AA]
c. DENAALEAKRAALKAKRAALKAEIAALEG [P5-AA-12HAA-R]
d. DENAALEAKEAALKAKEAALKAEIAALEG [P5-AA-12HAA-E]
Put these in order: smallest interaction score first, largest last. Thanks in advance for listing the labels in the requested order.
d, a, c, b
(d: -0.949, a: -0.372, c: 1.4, b: 2.03)

I. DENAALEAKYAALKAKYAALKAEIAALEG [P5-AA-12HAA-Y]
II. DENAALEAKKAALKAKKAALKAEIAALEG [P5-AA-12HAA-K]
III. DENAALEAKSAALKAKSAALKAEIAALEG [P5-AA-12HAA-S]
Number of binders to sort: 3. Sort criterion: interaction score, ascending. Arrange the labels as the request states and list them.
III, II, I
